These measurements were taken from paper PMC5566973.

Tested on: BCRP
EXPERIMENT_SUMMARY: in vitro
CONDITION_CONTEXT: human, Caco-2, PappAB
ENDPOINT_LABEL: Papp A→B (×10⁻⁶ cm/s)
Answers are plain numbers, in ×10⁻⁶ cm/s.

Return reported Papp A→B; argument: COc1ccc2c(c1)[nH]c1c(C)nccc12 19

---

Exercise: state measured Papp B→A at 120 min, 2 μM for each of the compounds provided.
Tested on: OCTs/OCTNs
EXPERIMENT_SUMMARY: Bidirectional transport in MDCK cell monolayers with selective transporter inhibitors or substrates
Format: in vitro ADME, canine
CONDITION_CONTEXT: dog, with TEA 5 mM, + TEA 5 mM (OCTs/OCTNs)

COc1ccc2c(c1)[nH]c1c(C)nccc12 : 6.96 ×10⁻⁶ cm/s

Shift focus to the following entry.
Return reported Papp B→A at 120 min, 2 μM; argument: COc1ccc2c3c([nH]c2c1)C(C)=NCC3 22.8 ×10⁻⁶ cm/s
